For each of the compounds below, state its IC50.
Target: IL-13 (Homo sapiens, UniProt P35225)
Sequence (P35225 25-146, species assumed): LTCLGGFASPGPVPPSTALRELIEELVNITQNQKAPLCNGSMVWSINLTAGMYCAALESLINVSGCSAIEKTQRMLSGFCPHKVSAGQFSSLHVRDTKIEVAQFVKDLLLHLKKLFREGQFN

Below, 2 compounds whose answers are already recorded.
COMPOUND	TARGET	RESULT
O=S(=O)(c1ccccc1)n1cc(CN(CCCCCNC2CCCCC2)Cc2ccncc2)c2ccccc21 [Compound 33]	IL-13 (Homo sapiens, UniProt P35225)	10.5 µM
CN(CCOCCN(Cc1cccnc1F)Cc1cn(S(=O)(=O)c2ccccc2)c2ccccc12)C1CCCC1 [Compound 104]	IL-13 (Homo sapiens, UniProt P35225)	> 50 µM

I need IC50 for every entry listed below, if you could help.
1. CN(CCCCN(Cc1ccn(S(=O)(=O)c2ccccc2)c1)Cc1cccnc1F)C1CCCCC1 [Compound 91]
2. FC(F)(F)c1cccc(-n2cc(CN(CCCCNC3CCCCC3)Cc3ccncc3)c3ccccc32)c1 [Compound 22]

> 50 µM
> 50 µM

* * *

For each of the compounds below, state its BINDING IL6 % Neutra at 100 μM.
Molecular target: IL-6 (Homo sapiens)
Sequence (P05231 30-212, species assumed): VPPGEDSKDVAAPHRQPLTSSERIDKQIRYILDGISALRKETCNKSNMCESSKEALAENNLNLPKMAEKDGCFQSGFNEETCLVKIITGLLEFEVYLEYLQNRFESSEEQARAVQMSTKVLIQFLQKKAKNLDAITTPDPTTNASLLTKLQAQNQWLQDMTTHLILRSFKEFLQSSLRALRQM
Test: Immunoassay binding test, IL-6 (gp130 receptor, IL-6Ra present)
Conditions: IL-6Ra 200 ng/ml

Below, 5 compounds whose answers are already recorded.
COMPOUND	BINDING IL6 % Neutra at 100 μM
O=S(=O)(c1ccccc1)n1cc(CN(CCCCNCc2cccnc2F)Cc2cn(S(=O)(=O)c3ccccc3)c3ccccc23)c2ccccc21 [Compound 88]	9%
FC(F)(F)c1cccc(-n2cc(CN(Cc3cccnc3)CC3CCCN(C4CCCCC4)C3)c3ccccc32)c1 (stereo not shown) [Compound 4]	5.2%
O=S(=O)(c1ccccc1)n1cc(CN(CCCCCNCc2cccnc2F)Cc2cccnc2F)c2ccccc21 [Compound 62]	0%
O=S(=O)(c1ccccc1)n1cc(CN(Cc2ccccn2)CC2CCCN(C3CCCCC3)C2)c2ccccc21 (stereo not shown) [Compound 1]	5.5%
FC(F)(F)c1cccc(-n2cc(CN(CCCCCNC3CCCCC3)Cc3cccnc3)c3ccccc32)c1 [Compound 38]	24.9%

I need BINDING IL6 % Neutra at 100 μM for every entry listed below, if you could help.
1. Fc1cc(CN(Cc2cn(-c3cccc(C(F)(F)F)c3)c3ccccc23)CC2CCCN(C3CCCCC3)C2)ccn1 (stereo not shown) [Compound 20]
2. FC(F)(F)c1cccc(-n2cc(CN(CCCNC3CCCCC3)Cc3cccnc3)c3ccccc32)c1 [Compound 10]

["18.5%", "10.7%"]

* * *

Record type: IC50 measurement. Applies to: TNFα (Homo sapiens, UniProt P01375)
Numbers only, in µM.

I need IC50 for every entry listed below, if you could help.
1. CN(CCCCN(Cc1ccncc1)Cc1cn(S(=O)(=O)c2ccccc2)c2ccccc12)C1CCCCC1 [Compound 18]
2. CN(CCN(Cc1cccnc1)Cc1cn(S(=O)(=O)c2ccccc2)c2ccccc12)C1CCCCC1 [Compound 27]
3. CN(CCN(Cc1ccncc1)Cc1cn(S(=O)(=O)c2ccccc2)c2ccccc12)C1CCCCC1 [Compound 28]
4. O=S(=O)(c1ccccc1)n1cc(CN(CCCCNC2CCCCC2)Cc2cccnc2F)c2ccccc21 [Compound 43]
5. O=S(=O)(c1ccccc1)n1cc(CN(CCCCN(C2CCC2)C2CCC2)Cc2cccnc2F)c2ccccc21 [Compound 86]
6. CN(CCCCCN(Cc1cccnc1F)Cc1cn(S(=O)(=O)c2ccccc2)c2ccccc12)C1CCCCC1 [Compound 52]
7. O=S(=O)(c1ccccc1)n1cc(CN(CCCCCNC2CCCCC2)Cc2ccnc(F)c2)c2ccccc21 [Compound 47]

1. 2.2
2. 13.8
3. 14.5
4. 8.8
5. 5
6. 9.1
7. 8.9

* * *

Molecular target: TNFa/TNFRI interaction (Homo sapiens, UniProt P01375)
Sequence (P01375 77-233 limits assumed): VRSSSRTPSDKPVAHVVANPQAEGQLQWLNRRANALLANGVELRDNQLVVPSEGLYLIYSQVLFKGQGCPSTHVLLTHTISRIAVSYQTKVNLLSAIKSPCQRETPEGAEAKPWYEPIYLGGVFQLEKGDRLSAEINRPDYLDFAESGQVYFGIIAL
Test: TNFa/TNFRI interaction displacement test
Assay type: binding
Settings: compounds at 50 μM; human TNFRI 100 ng/ml
For each of the compounds below, state its Displacement (%).
Numbers only, in %.

COMPOUND	Displacement (%)
CC(=O)NCCCCN(Cc1cccnc1F)Cc1cn(S(=O)(=O)c2ccccc2)c2ccccc12 [Compound 85]	45
O=S(=O)(c1ccccc1)n1cc(CN(CCCNC2CCCCC2)Cc2cccnc2)c2ccccc21 [Compound 7]	146
CN(CCOCCN(Cc1cccnc1F)Cc1cn(S(=O)(=O)c2ccccc2)c2ccccc12)C1CCCCC1 [Compound 65]	224
FC(F)(F)c1cccc(-n2cc(CN(CCCNC3CCCCC3)Cc3cccnc3)c3ccccc32)c1 [Compound 10]	121
FC(F)(F)c1cccc(-n2cc(CN(Cc3ccccn3)CC3CCCN(C4CCCCC4)C3)c3ccccc32)c1 (centres unmarked) [Compound 2]	183
FC(F)(F)c1cccc(-n2cc(CN(CCCCNC3CCCCC3)Cc3ccncc3)c3ccccc32)c1 [Compound 22]	120

I need Displacement (%) for every entry listed below, if you could help.
1. CN(CCCCCN(Cc1ccncc1)Cc1cn(-c2cccc(C(F)(F)F)c2)c2ccccc12)C1CCCCC1 [Compound 39]
2. O=S(=O)(c1ccccc1)n1cc(CN(Cc2ccncc2)CC2CCCN(C3CCCCC3)C2)c2ccccc21 (centres unmarked) [Compound 5]

1: 159; 2: 194

* * *

Record type: pIC50 measurement. Applies to: IL-4 (Homo sapiens)
One number for each entry, as −log10 of the molar value.

COMPOUND	TARGET	pIC50
Fc1ncccc1CN(Cc1cn(-c2cccc(C(F)(F)F)c2)c2ccccc12)CC1CCCN(C2CCCCC2)C1 (centres unmarked) [Compound 42]	IL-4 (Homo sapiens)	5.19
FC(F)(F)c1cccc(-n2cc(CN(CCCCNC3CCCCC3)Cc3cccnc3)c3ccccc32)c1 [Compound 21]	IL-4 (Homo sapiens)	5.68
CCCCN(CCCCN(Cc1cccnc1F)Cc1cn(S(=O)(=O)c2ccccc2)c2ccccc12)C1CCCCC1 [Compound 68]	IL-4 (Homo sapiens)	5.38
O=S(=O)(c1ccccc1)n1cc(CN(CCCCNC2CCCC2)Cc2cccnc2F)c2ccccc21 [Compound 71]	IL-4 (Homo sapiens)	5.22
O=S(=O)(c1ccccc1)n1cc(CN(CCCCCNC2CCCCC2)Cc2cccnc2)c2ccccc21 [Compound 34]	IL-4 (Homo sapiens)	5.23

I need pIC50 for every entry listed below, if you could help.
1. O=S(=O)(c1ccccc1)n1cc(CN(CCCCNC2CCCCCCC2)Cc2cccnc2F)c2ccccc21 [Compound 75]
2. CN(CCCCCN(Cc1cccnc1)Cc1cn(-c2cccc(C(F)(F)F)c2)c2ccccc12)C1CCCCC1 [Compound 40]

5.07
5.57

* * *

For each of the molecules below, state its BINDING IL13 % Neutra at 100 μM.
Molecular target: IL-13 (Homo sapiens)
Assay: Immunoassay binding test, IL-13
Details: 100 μM
Answers are plain numbers, in %.

Below, 4 molecules whose answers are already recorded.
MOLECULE	BINDING IL13 % Neutra at 100 μM (%)
CN(C)CCCCCN(Cc1cccc(F)n1)Cc1cn(S(=O)(=O)c2ccccc2)c2ccccc12	69.7
O=S(=O)(c1ccccc1)n1cc(CN(CCCCNC2CCCCCC2)Cc2cccnc2F)c2ccccc21	87.2
CN(CCCCN(Cc1ccncc1)Cc1cn(-c2cccc(C(F)(F)F)c2)c2ccccc12)C1CCCCC1	85.3
CN(CCCCN(Cc1cccnc1F)Cc1cn(S(=O)(=O)c2ccccc2)c2ccccc12)C1CCCCC1	88.8

I need BINDING IL13 % Neutra at 100 μM for every entry listed below, if you could help.
1. CN(CCCCCN(Cc1cccnc1)Cc1cn(S(=O)(=O)c2ccccc2)c2ccccc12)C1CCCCC1
2. O=S(=O)(c1ccccc1)n1cc(CN(CCCCNC2CCCCC2)Cc2cccnc2)c2ccccc21
3. FC(F)(F)c1cccc(-n2cc(CN(CCCCNC3CCCCC3)Cc3cccnc3)c3ccccc32)c1
4. CN(CCCCN(Cc1cccc(F)n1)Cc1cn(S(=O)(=O)c2ccccc2)c2ccccc12)C1CCCCC1
5. CN(CCCCN(Cc1cccnc1F)Cc1cn(S(=O)(=O)c2ccccc2)c2ccccc12)C1CCC1
6. O=S(=O)(c1ccccc1)n1cc(CN(Cc2ccncc2)CC2CCCN(C3CCCCC3)C2)c2ccccc21 (stereo not drawn)
7. CN(CCCN(Cc1cccnc1)Cc1cn(S(=O)(=O)c2ccccc2)c2ccccc12)C1CCCCC1

1: 95; 2: 94.8; 3: 94.6; 4: 89.4; 5: 69.6; 6: 84.9; 7: 59.7

I need BINDING IL13 % Neutra at 100 μM for every entry listed below, if you could help.
1. CN(CCCCN(Cc1ccnc(F)c1)Cc1cn(S(=O)(=O)c2ccccc2)c2ccccc12)C1CCCCC1
2. CN(C)S(=O)(=O)NCCCCN(Cc1cccnc1F)Cc1cn(S(=O)(=O)c2ccccc2)c2ccccc12
3. CN(CCCCCN(Cc1ccc(F)nc1)Cc1cn(S(=O)(=O)c2ccccc2)c2ccccc12)C1CCCCC1
4. O=S(=O)(c1ccccc1)n1cc(CN(CCOCCNC2CCCC2)Cc2cccnc2F)c2ccccc21

90.3
0
89.1
89.1

* * *

Target: IL-6 (Homo sapiens)
Assay: Immunoassay binding test, IL-6 (gp130 receptor, IL-6Ra present)
Details: IL-6Ra 200 ng/ml
METRIC: BINDING IL6 % Neutra at 100 μM (%)
Numbers only, in %.

COMPOUND	UNIT_DESCRIPTOR	BINDING IL6 % Neutra at 100 μM
O=S(=O)(c1ccccc1)n1cc(CN(CCOCCNC2CCCC2)Cc2cccnc2F)c2ccccc21	%	0
CN(CCCCCN(Cc1cccnc1)Cc1cn(S(=O)(=O)c2ccccc2)c2ccccc12)C1CCCCC1	%	−1.8
CCCCN(CCOCCN(Cc1cccnc1F)Cc1cn(S(=O)(=O)c2ccccc2)c2ccccc12)C1CCCCC1 [Compound 102]	%	0
FC(F)(F)c1cccc(-n2cc(CN(Cc3ccncc3)CC3CCCN(C4CCCCC4)C3)c3ccccc32)c1 (centres unmarked)	%	8.7
O=S(=O)(c1ccccc1)n1cc(CN(CCCCCNC2CCCCC2)Cc2ccncc2)c2ccccc21	%	−11.8
FC(F)(F)c1cccc(-n2cc(CN(CCCCNC3CCCCC3)Cc3ccncc3)c3ccccc32)c1	%	-1.3
O=S(=O)(c1ccccc1)n1cc(CN(CCCCNC2CCCCC2)Cc2cccnc2F)c2ccccc21	%	0

The record that follows has no BINDING IL6 % Neutra at 100 μM shown yet.
// lookup BINDING IL6 % Neutra at 100 μM for O=S(=O)(c1ccccc1)n1cc(CN(CCCCNC2CCCCCCC2)Cc2cccnc2F)c2ccccc21
0
